# STUDY TARGET: IL16_4, Q14005
# Sequence (Q14005 1229-1329): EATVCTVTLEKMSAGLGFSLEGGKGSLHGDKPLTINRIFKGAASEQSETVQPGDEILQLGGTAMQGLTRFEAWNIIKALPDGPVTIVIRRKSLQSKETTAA
# METHOD: holdup assay
# Parameters: key: below the threshold = too weak to quantify, mostly under pKd 3.1 to 4
# CONDITION SUMMARY: plain residues with an end cap or a label only (N-terminal biotin on a linker: ado-ado)
QUANTITY: pKd

# BINDER, VALUE MEASURED
rows = [
    ("YLEPVLSSEL [ATP2A2, P16615;P16615-3]", "below the threshold"),
    ("QKNRKAQEDL [CES3, Q6UWW8]", 3.63),
    ("YRLAQESGLV [ABCC6, O95255]", "below the threshold"),
    ("SKENVQETQI [LRRC4B, Q9NT99]", "below the threshold"),
]
